# SYSTEM TESTED: UniProt P25103
# ASSAY EXPLANATION: Tested for inhibitory concentration expressed as displacement of [125I]-labeled substance P from the cloned human Tachykinin receptor 1 expressed in CHO cells
# Assay type: cell-based
READOUT LABEL: pIC50
Worth noting: pIC50 values are minus log10 of concentrations stated in mol/L.

q: Looking for the measured pIC50 of `FC(F)(F)c1cc(CO[C@H]2C3CCN(CC3)[C@H]2c2ccccc2)cc(C(F)(F)F)c1` , can you help?
a: 9.70

* * *

# SYSTEM TESTED: Substance-P receptor (Homo sapiens)
# Sequence (P25103 whole entry): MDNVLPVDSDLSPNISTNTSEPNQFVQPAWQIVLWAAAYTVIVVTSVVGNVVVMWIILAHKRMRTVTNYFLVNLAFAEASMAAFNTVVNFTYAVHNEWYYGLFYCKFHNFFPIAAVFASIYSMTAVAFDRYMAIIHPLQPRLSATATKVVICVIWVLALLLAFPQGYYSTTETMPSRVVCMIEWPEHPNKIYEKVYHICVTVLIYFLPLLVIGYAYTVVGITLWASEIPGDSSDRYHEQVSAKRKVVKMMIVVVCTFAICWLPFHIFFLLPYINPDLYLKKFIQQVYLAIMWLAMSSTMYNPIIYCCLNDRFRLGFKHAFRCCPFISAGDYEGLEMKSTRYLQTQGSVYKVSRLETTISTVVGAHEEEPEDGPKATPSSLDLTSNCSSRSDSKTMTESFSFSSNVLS
# ASSAY EXPLANATION: Displacement of [125I]-labeled substance P from the cloned Tachykinin receptor 1
Please use fulfilled for IC50 under 2 nM and not fulfilled for everything else, ties included.

Past entries and their recorded results:
O=C(OCc1cc(C(F)(F)F)cc(C(F)(F)F)c1)[C@]1(c2ccccc2)CC[C@@H](N2CCC(c3ccc(F)cc3)CC2)CC1; not fulfilled
Fc1ccc(C2CCN(C3CCC(CCCc4cc(C(F)(F)F)cc(C(F)(F)F)c4)(c4ccccc4)CC3)CC2)cc1 (mixture of isomers); not fulfilled
CC(C(=O)N[C@]1(c2ccccc2)CC[C@@H](N2CCC(c3ccc(F)cc3)CC2)CC1)c1cc(C(F)(F)F)cc(C(F)(F)F)c1 (mixture of isomers); fulfilled
CC(NC(=O)[C@]1(c2ccccc2)CC[C@@H](N2CCC(c3ccc(F)cc3)CC2)CC1)c1cc(C(F)(F)F)cc(C(F)(F)F)c1 (mixture of isomers); fulfilled
CC(NC(=O)[C@]1(c2ccccc2)CC[C@@H](N2CCC(c3ccc(F)cc3)CC2)CC1)c1cc(C(F)(F)F)cc(C(F)(F)F)c1 (single isomer, unassigned; (-)); fulfilled

Attention now turns to another entry.
q: Say whether its IC50 is strictly beneath 2 nM. Entry: `O=C(NCc1cc(C(F)(F)F)cc(C(F)(F)F)c1)[C@]1(c2ccccc2)CC[C@H](N2CCC(c3ccc(F)cc3)CC2)CC1`
a: fulfilled

The measured values listed here are drawn from ChEMBL document CHEMBL1135169.
